test system: ACHN renal; test: NCI tumour cell line growth inhibition, 48 h
METRIC: TGI

I have this compound here, CC(C)(C)N/N=C(\C(=O)Nc1cccc(Cl)c1)C1C(=O)Nc2ccccc2S1=O (centres undefined) , and I need its recorded TGI. > 100 µM

Consider the compound shown here: Cc1ncc([N+](=O)[O-])n1CC[N+](C)([O-])CCCCn1ccnc1[N+](=O)[O-] (centres undefined) What is its recorded TGI? > 100 µM

Can you look up the measured TGI of CC1CCC2C(C)C(=O)OC3OC4(C)CCC1C32OO4 (centres undefined) for me? > 100 µM

What value of TGI has been reported for the following compound? CCN1c2ccccc2NC(=S)c2c1n[nH]c2-c1ccccc1 > 100 µM

---
Give the measured TGI of Cc1cc(=O)[nH]c(CNC(=O)c2ccc3ccccc3c2)n1 . > 100 µM

// returns reported TGI for input O=C(NC(=Nc1ccccc1)SCSC(=Nc1ccccc1)NC(=O)c1ccco1)c1ccco1 > 100 µM

Name the reported TGI value associated with the compound N#Cc1c(NCc2ccccc2)nc(NCc2ccccc2)c(C#N)c1-c1ccc(Cl)cc1 > 100 µM

Tell me the measured TGI of O=C(Cn1c(C(=O)c2ccc(Cl)cc2)nc(-c2ccc(Cl)cc2)c1-c1ccc(Cl)cc1)c1ccccc1 , please. > 100 µM

If you can, please state the reported TGI value of O[C@@H]1C[C@H](Cl)c2c(Cl)sc(Cl)c21 . > 100 µM

# input compound: COc1ccc2c(c1)CC[C@@H]1C2CC[C@]2(C)C(=O)N(CCN(C)C)C(=O)CC12 (some centres undefined) ; wanted: its TGI > 100 µM

GET /values?readout=TGI&item= O=C(CN1CCN(Cc2ccccc2Cl)CC1)NC1CC(=O)c2c(Br)sc(Br)c21 (centres undefined) > 100 µM

I'd like to know its TGI. The compound in question is CCN1CCC(CC(=O)Nc2n[nH]c3nnc(-c4cccc(F)c4F)cc23)CC1 > 25 µM

Param item = N#CC(C#N)=CNCCN1CCN(C=C(C#N)C#N)CC1 ; retrieve measured TGI. > 100 µM

Requested field: TGI. Item: CCOC(=O)c1nc2ccc(OC)cc2c2c1Cc1ccccc1-2 > 100 µM

Name the recorded TGI for COC(=O)c1ccc2nc(-c3cc4ccccc4n3C)n(CCCCOc3cc4c(cc3OC)C(=O)N3CCC[C@H]3C=N4)c2c1 . 6.75 µM

Query: TGI; subject: Clc1cc(-c2ccccc2)nc(Nc2nc3ccccc3[nH]2)n1 33.3 µM

Looking for the measured TGI of O=C(/C=C/C12c3ccccc3C(c3ccccc31)C1C(=O)N(c3ccc(Cl)cc3)C(=O)C12)c1ccccn1 (centres undefined) , can you help? 0.56 µM

Consider the compound COc1cccc2c1NC(=O)Cc1c-2[nH]c2ccccc12 and give its measured TGI. > 100 µM

====

test system: TK-10 renal; experiment: NCI tumour cell line growth inhibition, 48 h
Measured TGI values are reported for all entries that follow.
Quick reminder: number only, in µM, skip the unit.

Look up TGI for this molecule: CCCCCCCCCCCCCC[n+]1ccccc1 1.81

Item under review: COc1cc(C2c3cc4c(cc3OC(NNc3ccccc3)C2C)OCO4)cc(OC)c1OC (configuration not stated) . Reported TGI? 31.8

Given the molecule C[C@@H](N)COc1ccc(-c2cnc3ccc(N[C@H](C)c4cccc(F)c4)nn23)cc1 , what is its reported TGI? 8.22

Below: the item to evaluate.
Form field: reported TGI of CN(C)Cc1c(O)ccc2c1c1c(n2C)C(=O)c2ccccc2C1=O 50.7

====

tested on: 786-0 renal; experiment: NCI tumour cell line growth inhibition, 48 h
# GI50 values compiled below

The following compounds have reported results that may help.
# get_value(readout='GI50', item= COc1ccc(/C=C/C(=O)c2c(O)ccc3c(C)c(C(=O)O)oc23)cc1 ) 90.3 µM

Item COc1ccc(-c2cc(/C=C3\C(=O)Nc4cc(Cl)ccc43)[nH]n2)cc1 has what recorded GI50? 9.71 µM

May I ask what GI50 has been recorded for CN1CCN(Cc2ccc(NC(=O)c3cncc(C#Cc4c(N)ncc5ccc(C#N)cc45)c3)cc2C(F)(F)F)CC1 ? 0.901 µM

Next:
Consider the compound shown here: O=C(Cn1c(C(=O)c2ccc(Cl)cc2)nc(-c2ccc(Cl)cc2)c1-c1ccc(Cl)cc1)c1ccccc1 What is its recorded GI50? > 100 µM

====

tested on: UACC-62 melanoma; test: NCI tumour cell line growth inhibition, 48 h
METRIC: TGI

Need TGI of COC1/C=C/C=C(/C)Cc2cc(O)c(Cl)c(c2)N(C)C(=O)CC(OC(=O)C(C)C)C2(C)OC2C(C)C2CC1(O)NC(=O)O2 (stereo not given) , thanks. > 100 µM

Next:
// lookup TGI for CCC(=O)Nc1cccc(N=Cc2ccc(OC(=O)/C=C\c3ccccc3)cc2)c1 > 75 µM

Could you share which TGI value was measured for c1coc(-c2nccc3c2[nH]c2ccccc23)c1 ? > 100 µM

TGI lookup needed for Cc1cc2nc3c(C#N)c4c(c(Nc5ccc(F)cc5)n3c2cc1C)CCC4 , thanks. > 100 µM

Could you share which TGI value was measured for COC(=O)Nc1nc2ccc(S(=O)(=O)Nc3ccccn3)cc2[nH]1 ? > 100 µM

====

test system: TK-10 renal; test: NCI tumour cell line growth inhibition, 48 h
Catalogue of TGI values

Any idea what TGI was measured for CCOC(=O)c1[nH]cc(C)c1-c1cccn1-c1ccc(Cl)cc1[N+](=O)[O-] ? 41.7 µM

====

test system: KM12 colon; experiment: NCI tumour cell line growth inhibition, 48 h
Recorded TGI values for a group of molecules are listed next.

Recorded results for 3 molecules are shown here.
Entry CCOC(=O)c1c(NS(=O)(=O)c2ccc(C)cc2)sc2c1CCCC2 : reported TGI = ? 93.8 µM

TGI lookup needed for CN1C(=O)CC2(C)c3cc(O)cc(Br)c3N(C)C12 (stereo not given) , thanks. > 100 µM

Need TGI of Clc1cc(-c2ccccc2)nc(Nc2nc3ccccc3[nH]2)n1 , thanks. > 100 µM

Continuing:
So what's the measured TGI for this one? O=C1C=C(Nc2ccccc2C(=O)CC(=O)C(=O)Nc2ccc(Cl)cc2)c2ccccc2C1=O 54.6 µM

Can you look up the measured TGI of COc1ccc(-c2coc3cc(O)ccc3c2=O)cc1 for me? > 100 µM

So what does the record say about TGI for c1coc(-c2nccc3c2[nH]c2ccccc23)c1 ? > 100 µM

Which measured TGI value corresponds to COC(=O)CN(CC(=O)NCCCBr)C1CCCCC1N(CC(=O)OC)CC(=O)OC (stereo not given) ? > 100 µM

====

system: SF-295 CNS; experiment: NCI tumour cell line growth inhibition, 48 h
Item-by-item account of TGI

So what's the measured TGI for this one? O=C(CN1CCCC1=O)CS(=O)(=O)c1ccccc1 > 100 µM

Fill blank: measured TGI of the compound Cc1nn(C(=O)c2ccccc2O)c2c1C(c1ccc(O)cc1O)SC(N)=N2 (stereo not drawn) is ____. > 10 µM

In the following, a different compound is considered.
Which TGI reading was recorded for the compound OCC1OC2c3ccccc3COC2C1OCc1ccccc1 (stereo not drawn) ? > 100 µM

====

system: LOX IMVI melanoma; assay: NCI tumour cell line growth inhibition, 48 h
METRIC: TGI

Record excerpt, results attached:
Query (molecule): O=P(O)(O)c1ccc(-c2ccc(I)cc2)cc1 ; field requested: TGI > 100 µM

I would be grateful if you could share the reported TGI for COc1cccc(C=O)c1C(=O)c1cc(O)ccc1O . > 74 µM

Request the reported TGI associated with O=C1c2ccccc2C(=O)N1n1c(Cc2ccc(Cl)cc2)n[nH]c1=O > 100 µM

What measured TGI goes with COc1cc2c3c(n(CCCN(CCCN(CCCn4c5c(c6ccccc6c4=O)C(=O)c4ccccc4-5)C(=O)OC(C)(C)C)C(=O)OC(C)(C)C)c(=O)c2cc1OC)-c1cc2c(cc1C3=O)OCO2 ? > 100 µM

What value of measured TGI is listed for COC(=O)C1CSC(c2csc(CCN)n2)=N1 (stereo unspecified) ? > 100 µM

From here, focus on the item given below.
# get_value(readout='TGI', item= O=C(CN1CCCC1=O)CS(=O)(=O)c1ccccc1 ) > 100 µM

====

test system: SN12C renal; experiment: NCI tumour cell line growth inhibition, 48 h
METRIC: TGI

Need TGI of CCOP(=O)(CCCC(O)CNc1nc(N)nc(Cl)c1N=Nc1ccc(Cl)cc1)OCC (configuration not stated) , thanks. 18.2 µM

Further cases:
Endpoint output: TGI of CC1CCC2C(C)C(=O)OC3OC4(C)CCC1C32OO4 (configuration not stated) . Value? > 100 µM

Would you mind telling me what TGI value was observed for c1ccc2c(c1)SC(=C1Sc3ccccc3S1)S2 ? > 100 µM
